Values compiled from ChEMBL document CHEMBL2177069.

Tested on: MDA-MB-435
Assay: Cytotoxicity against human MDA-MB-435 cells
Type: functional
readoutName: LC50 (µM)
Reply with just the number (in µM).

Some solved entries appear below for comparison.
CC1=C([Se]CC(OC(=O)[C@@H](CO)NC(=O)OC(C)(C)C)C(=O)NCCCCCC(=O)OCc2ccccc2)C(=O)c2ccccc2C1=O (some centres undefined) = 6.76
CC1=C([Se]CC(OC(=O)[C@@H](CSSC(C)(C)C)NC(=O)C(C)(C)C)C(=O)NCCCCCC(=O)OCc2ccccc2)C(=O)c2ccccc2C1=O (some centres undefined) = 25.1
CC1=C([Se]CC(OC(=O)[C@@H](CO)NC(=O)OC(C)(C)C)C(=O)NC(C)(C)C)C(=O)c2ccccc2C1=O (some centres undefined) = 8.32

Task: Recall the reported LC50 of CC1=C(SCCC(=O)OC(C[Se]C2=C(C)C(=O)c3ccccc3C2=O)C(=O)NCCCCCC(=O)OCc2ccccc2)C(=O)c2ccccc2C1=O (centres undefined) when tested on MDA-MB-435.
Output: 49

====

System: M14
Assay: Cytotoxicity against human M14 cells
Type: functional
Items are presented alongside their recorded GI50.
Your reply should be a number followed by the unit it is expressed in.

CC1=C(SCCC(=O)OC(C[Se]C2=C(C)C(=O)c3ccccc3C2=O)C(=O)NCCCCCC(=O)OCc2ccccc2)C(=O)c2ccccc2C1=O (centres undefined) = 2 µM

Task: Kindly indicate its recorded GI50. Item: CC1=C([Se]CC(OC(=O)[C@@H](CSSC(C)(C)C)NC(=O)C(C)(C)C)C(=O)NCCCCCC(=O)OCc2ccccc2)C(=O)c2ccccc2C1=O (some centres undefined)
Output: 2.04 µM

Task: Kindly indicate its recorded GI50. Item: CC1=C([Se]CC(OC(=O)[C@@H](CO)NC(=O)OC(C)(C)C)C(=O)NC(C)(C)C)C(=O)c2ccccc2C1=O (some centres undefined)
Output: 1.66 µM

Task: Kindly indicate its recorded GI50. Item: CC1=C([Se]CC(OC(=O)[C@@H](CO)NC(=O)OC(C)(C)C)C(=O)NCCCCCC(=O)OCc2ccccc2)C(=O)c2ccccc2C1=O (some centres undefined)
Output: 1.78 µM

====

Items are presented alongside their recorded zone of inhibition at 20 µg/disc.
System: Saccharomyces cerevisiae
Assay: Growth inhibition of POS5-deficient Saccharomyces cerevisiae YPL188W mutant at 20 ug/disc after 24 to 48 hrs by agar diffusion assay
Type: functional
Conditions: read-out: DIZ
Reply with just the number (in mm).

Some solved entries appear below for comparison.
CC1=C([Se]CC(OC(=O)[C@@H](CSSC(C)(C)C)NC(=O)OC(C)(C)C)C(=O)NC(C)(C)C)C(=O)c2ccccc2C1=O (stereo partly specified) = 11
CC1=C(SCCC(=O)OC(CC[Se]c2ccccc2)C(=O)NC(C)(C)C)C(=O)c2ccccc2C1=O (stereo unspecified) = 0
CC1=C(SCCC(=O)OC(C[Se]C2=C(C)C(=O)c3ccccc3C2=O)C(=O)NCCCCCC(=O)OCc2ccccc2)C(=O)c2ccccc2C1=O (stereo unspecified) = 10
CC1=C(SCCC(=O)OC(C[Se]c2ccccc2)C(=O)NCCCCCC(=O)OCc2ccccc2)C(=O)c2ccccc2C1=O (stereo unspecified) = 0
CC1=C([Se]CC(OC(=O)CNC(=O)OC(C)(C)C)C(=O)NCCCCCC(=O)OCc2ccccc2)C(=O)c2ccccc2C1=O (stereo unspecified) = 0
CC1=C(SCCC(=O)OC(CC[Se]c2ccccc2)C(=O)NCCCCCC(=O)OCc2ccccc2)C(=O)c2ccccc2C1=O (stereo unspecified) = 0
CC1=C([Se]CC(OC(=O)[C@@H](CO)NC(=O)OC(C)(C)C)C(=O)NCCCCCC(=O)OCc2ccccc2)C(=O)c2ccccc2C1=O (stereo partly specified) = 0
CC1=C([Se]CC(OC(=O)CC[Se]c2ccccc2)C(=O)NCCCCCC(=O)OCc2ccccc2)C(=O)c2ccccc2C1=O (stereo unspecified) = 17

Task: Kindly indicate its recorded zone of inhibition at 20 µg/disc. Item: CC1=C([Se]CC(OC(=O)[C@@H](CSSC(C)(C)C)NC(=O)C(C)(C)C)C(=O)NCCCCCC(=O)OCc2ccccc2)C(=O)c2ccccc2C1=O (stereo partly specified)
Output: 0

Task: Kindly indicate its recorded zone of inhibition at 20 µg/disc. Item: CC1=C([Se]CC(OC(=O)[C@@H](CO)NC(=O)OC(C)(C)C)C(=O)NC(C)(C)C)C(=O)c2ccccc2C1=O (stereo partly specified)
Output: 11

Task: Kindly indicate its recorded zone of inhibition at 20 µg/disc. Item: CC1=C(SCCC(=O)OC(C[Se]c2ccccc2)C(=O)NC(C)(C)C)C(=O)c2ccccc2C1=O (stereo unspecified)
Output: 9

====

Items are presented alongside their recorded GI50.
System: SNB-19
Assay: Cytotoxicity against human SNB19 cells
Format: functional
Reply with just the number (in nM).

Some solved entries appear below for comparison.
CC1=C([Se]CC(OC(=O)[C@@H](CO)NC(=O)OC(C)(C)C)C(=O)NC(C)(C)C)C(=O)c2ccccc2C1=O (some centres undefined) = 661
CC1=C([Se]CC(OC(=O)[C@@H](CSSC(C)(C)C)NC(=O)C(C)(C)C)C(=O)NCCCCCC(=O)OCc2ccccc2)C(=O)c2ccccc2C1=O (some centres undefined) = 1100
CC1=C(SCCC(=O)OC(C[Se]C2=C(C)C(=O)c3ccccc3C2=O)C(=O)NCCCCCC(=O)OCc2ccccc2)C(=O)c2ccccc2C1=O (centres undefined) = 3800

Pending compound:
Task: Kindly indicate its recorded GI50. Item: CC1=C([Se]CC(OC(=O)[C@@H](CO)NC(=O)OC(C)(C)C)C(=O)NCCCCCC(=O)OCc2ccccc2)C(=O)c2ccccc2C1=O (some centres undefined)
Output: 776

====

Tested on: MDA-MB-468
Assay: Cytotoxicity against human MDA-MB-468 cells
Assay type: functional
readoutName: LC50 (µM)
Reply with just the number (in µM).

CC1=C([Se]CC(OC(=O)[C@@H](CO)NC(=O)OC(C)(C)C)C(=O)NC(C)(C)C)C(=O)c2ccccc2C1=O (some centres undefined) = 5.89
CC1=C(SCCC(=O)OC(C[Se]C2=C(C)C(=O)c3ccccc3C2=O)C(=O)NCCCCCC(=O)OCc2ccccc2)C(=O)c2ccccc2C1=O (centres undefined) = 37.2
CC1=C([Se]CC(OC(=O)[C@@H](CO)NC(=O)OC(C)(C)C)C(=O)NCCCCCC(=O)OCc2ccccc2)C(=O)c2ccccc2C1=O (some centres undefined) = 6.76

Pending molecule:
Task: Kindly indicate its recorded LC50. Item: CC1=C([Se]CC(OC(=O)[C@@H](CSSC(C)(C)C)NC(=O)C(C)(C)C)C(=O)NCCCCCC(=O)OCc2ccccc2)C(=O)c2ccccc2C1=O (some centres undefined)
Output: 8.51

====

System: A498
Experiment: Cytotoxicity against human A498 cells
Type: functional
readoutName: GI50 (nM)
Reply with just the number (in nM).

Some solved entries appear below for comparison.
CC1=C([Se]CC(OC(=O)[C@@H](CO)NC(=O)OC(C)(C)C)C(=O)NC(C)(C)C)C(=O)c2ccccc2C1=O (some centres undefined) = 3630
CC1=C([Se]CC(OC(=O)[C@@H](CSSC(C)(C)C)NC(=O)C(C)(C)C)C(=O)NCCCCCC(=O)OCc2ccccc2)C(=O)c2ccccc2C1=O (some centres undefined) = 1620
CC1=C(SCCC(=O)OC(C[Se]C2=C(C)C(=O)c3ccccc3C2=O)C(=O)NCCCCCC(=O)OCc2ccccc2)C(=O)c2ccccc2C1=O (centres undefined) = 12000

Pending compound:
Task: Kindly indicate its recorded GI50. Item: CC1=C([Se]CC(OC(=O)[C@@H](CO)NC(=O)OC(C)(C)C)C(=O)NCCCCCC(=O)OCc2ccccc2)C(=O)c2ccccc2C1=O (some centres undefined)
Output: 2040

====

Items are presented alongside their recorded GI50.
Tested on: ACHN
Test: Cytotoxicity against human ACHN cells
Assay type: functional

Some solved entries appear below for comparison.
CC1=C([Se]CC(OC(=O)[C@@H](CO)NC(=O)OC(C)(C)C)C(=O)NC(C)(C)C)C(=O)c2ccccc2C1=O (some centres undefined) = 1580 nM
CC1=C(SCCC(=O)OC(C[Se]C2=C(C)C(=O)c3ccccc3C2=O)C(=O)NCCCCCC(=O)OCc2ccccc2)C(=O)c2ccccc2C1=O (centres undefined) = 12000 nM
CC1=C([Se]CC(OC(=O)[C@@H](CSSC(C)(C)C)NC(=O)C(C)(C)C)C(=O)NCCCCCC(=O)OCc2ccccc2)C(=O)c2ccccc2C1=O (some centres undefined) = 2140 nM

Pending molecule:
Task: Kindly indicate its recorded GI50. Item: CC1=C([Se]CC(OC(=O)[C@@H](CO)NC(=O)OC(C)(C)C)C(=O)NCCCCCC(=O)OCc2ccccc2)C(=O)c2ccccc2C1=O (some centres undefined)
Output: 1660 nM

====

Tested on: SF-268
Test: Cytotoxicity against human SF268 cells
Format: functional
Items are presented alongside their recorded LC50.
Reply with just the number (in µM).

Some solved entries appear below for comparison.
CC1=C([Se]CC(OC(=O)[C@@H](CO)NC(=O)OC(C)(C)C)C(=O)NC(C)(C)C)C(=O)c2ccccc2C1=O (some centres undefined) = 5.89
CC1=C([Se]CC(OC(=O)[C@@H](CO)NC(=O)OC(C)(C)C)C(=O)NCCCCCC(=O)OCc2ccccc2)C(=O)c2ccccc2C1=O (some centres undefined) = 5.75
CC1=C(SCCC(=O)OC(C[Se]C2=C(C)C(=O)c3ccccc3C2=O)C(=O)NCCCCCC(=O)OCc2ccccc2)C(=O)c2ccccc2C1=O (centres undefined) = 44.7

Task: Recall the reported LC50 of CC1=C([Se]CC(OC(=O)[C@@H](CSSC(C)(C)C)NC(=O)C(C)(C)C)C(=O)NCCCCCC(=O)OCc2ccccc2)C(=O)c2ccccc2C1=O (some centres undefined) when tested on SF-268.
Output: 6.46
